Assay: in vivo
Conditions: Sprague-Dawley, rat, po, 1.2 mg/kg
reported-metric: bioavailability (%)

molecule-smiles: CC(C)C[C@H](NC(=O)CNC(=O)c1cc(Cl)ccc1Cl)B(O)O
recorded-result: 27.8

Values were extracted from ChEMBL document CHEMBL4229412.
